target: rat FAAH (Rattus norvegicus (Rat), UniProt P97612); assay: Assay Method 3: FAAH assay, cells transfected with rat FAAH; type: biochemical; settings: T84 or rat FAAH-transfected SK-N-MC cell homogenate, 3H-AEA tracer 80 nM, 1 h at rt; hydrochloride
Sequence (P97612 whole entry): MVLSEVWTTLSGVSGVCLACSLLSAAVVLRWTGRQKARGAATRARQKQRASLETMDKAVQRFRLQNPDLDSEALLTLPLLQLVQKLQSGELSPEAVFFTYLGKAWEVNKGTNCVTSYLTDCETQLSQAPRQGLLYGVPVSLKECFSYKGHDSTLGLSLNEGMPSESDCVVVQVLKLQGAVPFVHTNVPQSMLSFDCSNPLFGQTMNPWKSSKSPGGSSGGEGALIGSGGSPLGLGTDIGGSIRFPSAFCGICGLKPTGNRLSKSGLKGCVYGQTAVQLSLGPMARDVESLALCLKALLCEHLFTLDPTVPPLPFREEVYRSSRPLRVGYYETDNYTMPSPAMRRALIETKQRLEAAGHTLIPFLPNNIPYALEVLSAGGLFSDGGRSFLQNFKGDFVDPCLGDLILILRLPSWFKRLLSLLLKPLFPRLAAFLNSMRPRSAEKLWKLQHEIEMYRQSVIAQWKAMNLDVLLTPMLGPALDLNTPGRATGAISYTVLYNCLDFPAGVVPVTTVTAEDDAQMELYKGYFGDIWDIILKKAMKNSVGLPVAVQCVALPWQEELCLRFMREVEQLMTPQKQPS
Structures can show the parent of a compound that is named as a salt.
PROPERTY_LABEL: pIC50
Conceptually, pIC50 converts a concentration in mol/L into minus its log10.

Reported pIC50 for rat FAAH (Rattus norvegicus (Rat), UniProt P97612), given O=C(Nc1ccccc1)N1CCN(Cc2ccc(Br)c(Br)c2)CC1 [Example 162, hydrochloride] ?
6.57

----------
molecular target: FAAH (Homo sapiens (Human), UniProt O00519); assay: Assay Method 2: FAAH assay, cells transfected with human FAAH; type: biochemical; details: T84 or human FAAH-transfected SK-N-MC cell homogenate, 3H-AEA tracer 80 nM, 1 h at rt
Sequence (O00519 whole entry): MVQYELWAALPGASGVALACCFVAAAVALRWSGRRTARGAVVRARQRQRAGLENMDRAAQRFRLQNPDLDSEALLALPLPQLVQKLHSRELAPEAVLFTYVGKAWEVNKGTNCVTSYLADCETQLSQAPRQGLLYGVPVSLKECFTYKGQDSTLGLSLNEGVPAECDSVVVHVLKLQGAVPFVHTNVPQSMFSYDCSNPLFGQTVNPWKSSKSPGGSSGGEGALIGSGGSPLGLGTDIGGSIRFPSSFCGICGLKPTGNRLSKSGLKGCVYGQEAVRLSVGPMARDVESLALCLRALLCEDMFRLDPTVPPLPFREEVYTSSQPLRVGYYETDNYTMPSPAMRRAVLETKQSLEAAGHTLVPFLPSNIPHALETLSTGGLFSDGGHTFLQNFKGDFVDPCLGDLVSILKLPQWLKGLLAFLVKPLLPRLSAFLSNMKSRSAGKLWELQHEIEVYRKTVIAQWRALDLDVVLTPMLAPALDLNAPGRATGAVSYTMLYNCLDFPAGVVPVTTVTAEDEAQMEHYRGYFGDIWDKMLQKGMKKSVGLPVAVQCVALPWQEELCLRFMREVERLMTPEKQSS
PROPERTY_LABEL: pIC50
Conceptually, pIC50 converts a concentration in mol/L into minus its log10.

# annotated cases, reported pIC50 shown
[
  {
    "COMPOUND": "O=C(O)c1ccc(NC(=O)N2CCN(Cc3cnc4ccccc4c3)CC2)cc1 [Example 155]",
    "SYSTEM_TESTED": "FAAH (Homo sapiens (Human), UniProt O00519)",
    "PROPERTY_LABEL": "pIC50",
    "MEASURED_NUMBER": 5.10
  },
  {
    "COMPOUND": "O=C(Nc1ccccn1)N1CCN(Cc2ccc3c(c2)OCO3)CC1 [Example 149]",
    "SYSTEM_TESTED": "FAAH (Homo sapiens (Human), UniProt O00519)",
    "PROPERTY_LABEL": "pIC50",
    "MEASURED_NUMBER": 5.40
  },
  {
    "COMPOUND": "O=C(Nc1ccccn1)N1CCN(Cc2cnc3ccccc3c2)CC1 [Example 143]",
    "SYSTEM_TESTED": "FAAH (Homo sapiens (Human), UniProt O00519)",
    "PROPERTY_LABEL": "pIC50",
    "MEASURED_NUMBER": 5.74
  },
  {
    "COMPOUND": "O=C(Nc1ccccc1)N1CCN(Cc2cnc3ccccc3n2)CC1 [Example 156]",
    "SYSTEM_TESTED": "FAAH (Homo sapiens (Human), UniProt O00519)",
    "PROPERTY_LABEL": "pIC50",
    "MEASURED_NUMBER": 6.08
  },
  {
    "COMPOUND": "O=C(Nc1ccc(F)cc1)N1CCN(Cc2cnc3ccccc3c2)CC1 [Example 98]",
    "SYSTEM_TESTED": "FAAH (Homo sapiens (Human), UniProt O00519)",
    "PROPERTY_LABEL": "pIC50",
    "MEASURED_NUMBER": 6.66
  }
]

Which pIC50 reading was recorded for the compound O=C(Nc1cccnc1)N1CCN(Cc2ccc3c(c2)OCO3)CC1 [Example 146] ?
6.42

Same again, this time with O=C(Nc1ccccc1)N1CCN(Cc2ccccc2O)CC1 [Example 41]
5.52

Same again, this time with O=C(Nc1ccccc1)N1CCN(Cc2ccc3ccccc3c2)CC1 [Example 18]
7.64

Data origin, for the record: patent US9169224B2
